TARGET UNDER TEST: Ionotropic glutamate receptor NMDA 1/2D (Rattus norvegicus, UniProt P35439+Q62645)
Sequence (Q62645 whole entry, other chains not shown): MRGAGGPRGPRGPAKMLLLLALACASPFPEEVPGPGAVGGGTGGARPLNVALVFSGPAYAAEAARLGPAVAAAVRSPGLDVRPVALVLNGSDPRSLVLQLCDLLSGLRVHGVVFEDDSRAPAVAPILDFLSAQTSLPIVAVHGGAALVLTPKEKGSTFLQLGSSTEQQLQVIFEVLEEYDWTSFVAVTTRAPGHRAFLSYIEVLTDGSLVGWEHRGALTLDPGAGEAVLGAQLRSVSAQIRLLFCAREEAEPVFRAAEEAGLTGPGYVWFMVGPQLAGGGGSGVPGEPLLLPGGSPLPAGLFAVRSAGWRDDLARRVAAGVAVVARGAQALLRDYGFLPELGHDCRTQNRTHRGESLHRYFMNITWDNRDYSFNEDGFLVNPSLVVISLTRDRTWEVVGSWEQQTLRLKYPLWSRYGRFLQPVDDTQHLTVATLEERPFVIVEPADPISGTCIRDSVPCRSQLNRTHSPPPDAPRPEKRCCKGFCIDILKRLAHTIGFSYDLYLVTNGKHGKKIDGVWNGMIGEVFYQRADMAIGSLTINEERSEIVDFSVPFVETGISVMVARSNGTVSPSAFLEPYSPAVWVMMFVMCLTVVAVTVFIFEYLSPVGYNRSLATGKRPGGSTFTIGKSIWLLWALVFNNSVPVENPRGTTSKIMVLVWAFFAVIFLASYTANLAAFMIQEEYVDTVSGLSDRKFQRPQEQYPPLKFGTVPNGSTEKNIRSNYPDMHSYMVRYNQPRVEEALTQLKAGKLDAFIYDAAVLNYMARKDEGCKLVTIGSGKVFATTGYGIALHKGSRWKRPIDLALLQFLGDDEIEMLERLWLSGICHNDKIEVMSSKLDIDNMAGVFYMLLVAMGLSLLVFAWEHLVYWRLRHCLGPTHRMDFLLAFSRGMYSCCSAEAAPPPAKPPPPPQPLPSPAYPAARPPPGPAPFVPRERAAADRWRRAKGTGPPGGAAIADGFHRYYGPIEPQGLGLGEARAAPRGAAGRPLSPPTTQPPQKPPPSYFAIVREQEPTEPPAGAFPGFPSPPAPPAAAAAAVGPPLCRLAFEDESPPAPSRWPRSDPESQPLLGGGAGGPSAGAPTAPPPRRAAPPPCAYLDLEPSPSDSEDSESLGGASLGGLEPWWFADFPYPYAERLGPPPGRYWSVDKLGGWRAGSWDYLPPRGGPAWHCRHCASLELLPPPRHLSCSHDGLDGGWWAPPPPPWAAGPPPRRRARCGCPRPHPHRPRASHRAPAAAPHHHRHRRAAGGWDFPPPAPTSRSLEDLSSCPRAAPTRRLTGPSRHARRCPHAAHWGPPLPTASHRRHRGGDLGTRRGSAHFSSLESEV
ASSAY COMMENT: Partial agonist activity at recombinant rat GluN1/GluN2D NMDA receptor expressed in xenopus laevis oocytes in presence of L-glutamate by two-electrode voltage-clamp method
pEC50: −log10 of the molar value.
The entries below come with measured pEC50 values attached.

{"columns": ["MOL SMILES", "pEC50"],
 "data": [
  ["COc1cccc(F)c1-c1ccc(C(=O)NC[C@@H](N)C(=O)O)s1", 6.74],
  ["N[C@H](CNC(=O)c1ccc(-c2ccccc2C(F)(F)F)s1)C(=O)O", 6.70],
  ["Cc1cc(C(=O)NC[C@@H](N)C(=O)O)sc1-c1ccccc1Br", 6.92]
]}
